Overview of recorded TL1A Binding Level (Early) for various binders
- study system: T1, human TL1A extracellular domain with N-terminal HIS and FLAG tag (human, UniProt O95150 72-251)
- T1 construct: the whole entry is named; also called TNFSF15
- T1 sequence: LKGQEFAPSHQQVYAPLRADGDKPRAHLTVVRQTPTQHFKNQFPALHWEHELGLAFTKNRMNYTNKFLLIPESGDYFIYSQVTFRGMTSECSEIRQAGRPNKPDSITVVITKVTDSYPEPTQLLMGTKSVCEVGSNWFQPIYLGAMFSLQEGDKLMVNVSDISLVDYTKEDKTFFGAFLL
- assay text: SPR Run 7, antibody on Protein A, TL1A 5 ug/mL, timepoint 44
- Procedure: 1.5. Antibody expression and antigen binding as determined by SPR. Using a CM5 sensor chip (GE Healthcare) Protein A (Pierce) was coupled to the chip surface using an amine coupling kit (GE Healthcare). Protein A was coupled on flow cell 1 and 2 (or alternatively 3 and 4) using a BIACORE® T200. […] At the end of injection of the supernatant or purified antibody the change in response units was measured. […] The response units were measured prior to the end of the dissociation phase. […]
Respond numerically; units are RU and should not be typed.

Completed entries (count: 2):
320-514 (antibody, human IgG1, name in Kabat numbering, V domains shown, full-length human IgG1, lambda) VH: QVQLVQSGAEVKKPGASVKVSCKASGYTFTSYDINWVRQAPGQGLEWMGWLNPASGNTGYAQKFQGRVTMTADRSTSTAYMELSSLRSEDTAVYYCAREVPETAAFEYWGQGTLVTVSS VL: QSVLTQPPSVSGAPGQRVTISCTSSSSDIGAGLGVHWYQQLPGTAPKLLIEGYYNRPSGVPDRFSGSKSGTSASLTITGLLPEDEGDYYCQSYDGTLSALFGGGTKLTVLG	96
320-564 (antibody, human IgG1, name in Kabat numbering, V domains shown, full-length human IgG1, lambda) VH: QVQLVQSGAEVKKPGASVKVSCKASGYTFTSYDINWVRQAPGQGLEWMGWLNPNSGNTWYAQKFQGRVTMTADRSTSTAYMELSSLRSEDTAVYYCAREVPETAAFEYWGQGTLVTVSS VL: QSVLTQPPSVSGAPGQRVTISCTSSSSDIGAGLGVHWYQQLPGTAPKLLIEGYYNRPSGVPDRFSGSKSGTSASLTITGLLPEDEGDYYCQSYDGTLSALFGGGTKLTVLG	72

Now for the binder whose TL1A Binding Level (Early) we want.
May I ask what TL1A Binding Level (Early) has been recorded for 320-572 (antibody, human IgG1, name in Kabat numbering, V domains shown, full-length human IgG1, lambda) VH: QVQLVQSGAEVKKPGASVKVSCKASGYTFTSYDINWVRQAPGQGLEWMGWLNPNSGNTGYSQKFQGRVTMTADRSTSTAYMELSSLRSEDTAVYYCAREVPETAAFEYWGQGTLVTVSS VL: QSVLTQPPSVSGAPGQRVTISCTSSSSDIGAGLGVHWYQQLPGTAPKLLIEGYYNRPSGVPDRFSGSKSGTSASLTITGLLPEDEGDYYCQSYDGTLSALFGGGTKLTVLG ?
98

Values were extracted from patent US20170081400A1.
